test: in vitro; conditions: human, Caco-2, Caco-2 (cm/sec)
Where a SMILES comes first, the peptide text is derived from it. Bridges are numbered along the chain shown (N, C = ends). [ ]: non-standard residue; d: D form. The star is where a group is joined. NMePhe(3-Cl) = CN[C@@H](Cc1cccc(Cl)c1)C(=O)O; NMeF = CN[C@@H](Cc1ccccc1)C(=O)O; NMeD = CN[C@@H](CC(=O)O)C(=O)O; NMeL = CN[C@@H](CC(C)C)C(=O)O; NMeV = CN[C@H](C(=O)O)C(C)C; NMeA = CN[C@@H](C)C(=O)O; Piperidide = C1CCN(*)CC1; dNMeA = CN[C@H](C)C(=O)O; Sar = CNCC(=O)O; tBu = CC(C)(C)*
What Papp was measured for each of the following?
Kindly answer with a numeric value in ×10⁻⁶ cm/s, unit omitted.

Recorded Papp (compound CC(C)C[C@H]1C(=O)N[C@@H]([C@@H](C)O)C(=O)N(C)CC(=O)N(C)[C@@H](C(C)C)C(=O)N[C@@H](Cc2ccccc2)C(=O)N(C)[C@@H](Cc2cccc(Cl)c2)C(=O)N(C)[C@@H](CC(C)C)C(=O)N(C)[C@H](C(=O)N2CCCCC2)CC(=O)N(C)[C@H](C)C(=O)N[C@@H](Cc2ccccc2)C(=O)N[C@@H](COC(C)(C)C)C(=O)N1C [pd167] ([dNMeA]FS(tBu)[NMeL]T[Sar][NMeV]F[NMePhe(3-Cl)][NMeL][NMeD]-Piperidide; lactam N-11) ): 1.7

Recorded Papp (compound CC(C)C[C@@H]1NC(=O)[C@H](Cc2ccccc2)N(C)C(=O)[C@@H](C(C)C)NC(=O)C[C@@H](C(=O)N2CCCCC2)NC(=O)[C@H](C)N(C)C(=O)[C@H](CC(C)C)N(C)C(=O)[C@H](COC(C)(C)C)NC(=O)[C@H](CC(C)C)N(C)C(=O)CN(C)C(=O)[C@H](Cc2ccc(O)cc2)NC(=O)[C@H](CC(C)C)N(C)C1=O [pd127] ([dV][NMeF]L[NMeL]Y[Sar][NMeL]S(tBu)[NMeL][NMeA]D-Piperidide; lactam N-11) ): 0.13

Recorded Papp (compound CC(C)C[C@H]1C(=O)N[C@@H](COC(C)(C)C)C(=O)N(C)[C@@H](Cc2ccccc2)C(=O)N(C)[C@@H](C(C)C)C(=O)N[C@H](C(=O)N2CCCCC2)CC(=O)N[C@H](C)C(=O)N(C)[C@@H](Cc2ccccc2)C(=O)NC(COc2cccc(Cl)c2)C(=O)N(C)[C@@H](C(C)C)C(=O)N[C@@H]([C@@H](C)O)C(=O)N(C)CC(=O)N1C (stereo partly drawn) ): 2.2

====

assay: in vitro; details: human, Caco-2, Caco-2 (cm/sec)
*1 amine or outer side, *2 acyl side, *3 side chain or, on linkers, in order; H or OH if unused. Where a SMILES comes first, the peptide text is derived from it. Bridges are numbered along the chain shown (N, C = ends). [ ]: non-standard residue; d: D form. The star is where a group is joined. NMePhe(3-Cl) = CN[C@@H](Cc1cccc(Cl)c1)C(=O)O; Propyl(2,2-Me2,3-OH) = CC(C)(CO)C*; NMeF = CN[C@@H](Cc1ccccc1)C(=O)O; NMeGABA = CN(CCCC(=O)[*:2])[*:1]; Butyl(3-Me,3-OH) = CC(C)(O)CC*; NMeL = CN[C@@H](CC(C)C)C(=O)O; NMeV = CN[C@H](C(=O)O)C(C)C; NMeA = CN[C@@H](C)C(=O)O; Piperidide = C1CCN(*)CC1; NBuGly = CCCCNCC(=O)O; Isopentyl = CC(C)CC*; Propyl(3-OH) = OCCC*; Sar = CNCC(=O)O; tBu = CC(C)(C)*
Experimental readout: Papp (×10⁻⁶ cm/s)
Kindly answer with a numeric value in ×10⁻⁶ cm/s, unit omitted.

Recorded Papp (compound CC[C@H](C)[C@@H]1NC(=O)[C@H](CC(C)C)N(C)C(=O)CCCN(C)C(=O)C[C@@H](C(=O)N2CCCCC2)NC(=O)[C@H](CC(C)C)N(C)C(=O)[C@H](C)N(C)C(=O)[C@H](Cc2c[nH]c3ccccc23)NC(=O)[C@H](CC(C)C)N(C)C(=O)[C@H](COC(C)(C)C)NC(=O)[C@H](CC(C)C)N(C)C(=O)[C@H](CC(C)C)N(C)C1=O [pd110] ([NMeGABA][NMeL]I[NMeL][NMeL]S(tBu)[NMeL]W[NMeA][NMeL]D-Piperidide; lactam N-11) ): 0.29

Recorded Papp (compound CC(C)C[C@@H]1NC(=O)[C@H](Cc2ccccc2)N(C)C(=O)[C@H](COC(C)(C)C)NC(=O)[C@H](Cc2ccccc2)N(C)C(=O)[C@H](C)N(C)C(=O)[C@H](CC(C)C)N(C)C(=O)[C@@H]2CCCN2C(=O)C[C@@H](C(=O)N2CCCCC2)NC(=O)[C@H](Cc2ccccc2)N(C)C(=O)[C@H]([C@@H](C)O)NC(=O)[C@H](CC(C)C)N(C)C1=O [pd214] (P[NMeL][NMeA][NMeF]S(tBu)[NMeF]L[NMeL]T[NMeF]D-Piperidide; lactam N-11) ): 1.2

Recorded Papp (compound CCCCN1CC(=O)N(C)[C@@H](CC(C)C)C(=O)N[C@@H](COCCCO)C(=O)N(C)[C@@H](Cc2cccc(Cl)c2)C(=O)N(C)[C@@H](CC(C)C)C(=O)N[C@H](C(=O)N2CCCCC2)CC(=O)N[C@H](C(C)C)C(=O)N(C)[C@@H](Cc2ccccc2)C(=O)N[C@@H](CC(C)C)C(=O)N(C)[C@@H](CC(C)C)C(=O)N[C@@H]([C@@H](C)O)C1=O [AP98] ([dV][NMeF]L[NMeL]T[NBuGly][NMeL]S(Propyl(3-OH))[NMePhe(3-Cl)][NMeL]D-Piperidide; lactam N-11) ): 0.16

Recorded Papp (compound CC(C)CCOC[C@@H]1NC(=O)[C@H](CC(C)C)N(C)C(=O)CN(C)C(=O)[C@H]([C@@H](C)O)NC(=O)[C@H](CC(C)C)N(C)C(=O)[C@H](COCCC(C)(C)O)NC(=O)[C@H](Cc2ccccc2)N(C)C(=O)[C@@H](C(C)C)NC(=O)C[C@@H](C(=O)N2CCCCC2)NC(=O)[C@H](CC(C)C)N(C)C(=O)[C@H](Cc2ccccc2)N(C)C1=O [AP51] ([dV][NMeF]S(Butyl(3-Me,3-OH))[NMeL]T[Sar][NMeL]S(Isopentyl)[NMeF][NMeL]D-Piperidide; lactam N-11) ): 1.4

Recorded Papp (compound CCCCN1CC(=O)N(C)[C@@H](Cc2ccccc2)C(=O)N(C)[C@@H](C(C)C)C(=O)N[C@@H](COC(C)(C)C)C(=O)N(C)[C@@H](CC(C)C)C(=O)N[C@H](C(=O)N2CCCCC2)CC(=O)N(C)CC(=O)N(C)[C@@H](Cc2cccc(Cl)c2)C(=O)N[C@@H](COCC(C)(C)CO)C(=O)N(C)[C@@H](CC(C)C)C(=O)N[C@@H]([C@@H](C)O)C1=O [AP123] ([Sar][NMePhe(3-Cl)]S(Propyl(2,2-Me2,3-OH))[NMeL]T[NBuGly][NMeF][NMeV]S(tBu)[NMeL]D-Piperidide; lactam N-11) ): 0.8

====

test: in vitro; conditions: human, Caco-2, Caco-2 (membrane permeability)
*1 amine or outer side, *2 acyl side, *3 side chain or, on linkers, in order; H or OH if unused. Where a SMILES comes first, the peptide text is derived from it. Bridges are numbered along the chain shown (N, C = ends). [ ]: non-standard residue; d: D form. The star is where a group is joined. X12 = O=C([C@H](CCCC(O)C(F)(F)F)N[*:1])[*:2]; NMeF = CN[C@@H](Cc1ccccc1)C(=O)O; NMeGABA = CN(CCCC(=O)[*:2])[*:1]; NMeI = CC[C@H](C)[C@H](NC)C(=O)O; CH2CH(OH)CF3 = OC(C*)C(F)(F)F; NMeL = CN[C@@H](CC(C)C)C(=O)O; NMeV = CN[C@H](C(=O)O)C(C)C; Piperidide = C1CCN(*)CC1; Sar = CNCC(=O)O; tBu = CC(C)(C)*
What Papp was measured for each of the following?
Kindly answer with a numeric value in ×10⁻⁶ cm/s, unit omitted.

Recorded Papp (compound CC(C)C[C@H]1C(=O)N[C@@H](C(C)C)C(=O)N(C)[C@@H](Cc2ccccc2)C(=O)N(C)[C@@H](Cc2ccccc2)C(=O)N[C@@H](COC(C)(C)C)C(=O)N(C)[C@@H](CC(C)C)C(=O)N[C@@H](COCC(O)C(F)(F)F)C(=O)N(C)[C@@H](CC(C)C)C(=O)N(C)[C@@H](CC(C)C)C(=O)N[C@H](C(=O)N2CCCCC2)CC(=O)N(C)CCCC(=O)N1C (stereo partly drawn) [Compound C12] ([NMeGABA][NMeL]V[NMeF][NMeF]S(tBu)[NMeL]S(CH2CH(OH)CF3)[NMeL][NMeL]D-Piperidide; lactam N-11) ): 0.23

Recorded Papp (compound CC[C@H](C)[C@H]1C(=O)N[C@@H]([C@@H](C)O)C(=O)N(C)CC(=O)N(C)[C@@H](CC(C)C)C(=O)N[C@H](C(=O)N2CCCCC2)CC(=O)N(C)[C@@H](C(C)C)C(=O)N[C@@H](CCCC(O)C(F)(F)F)C(=O)N(C)[C@@H](CC(C)C)C(=O)N(C)[C@@H](Cc2ccccc2)C(=O)N[C@@H](CC(C)C)C(=O)N(C)[C@@H](Cc2ccccc2)C(=O)N1C (stereo partly drawn) [Compound D08] ([NMeV][X12][NMeL][NMeF]L[NMeF][NMeI]T[Sar][NMeL]D-Piperidide; lactam N-11) ): 0.53
